- Tested on: OVCAR-8 ovarian
- experimental-protocol: NCI tumour cell line growth inhibition, 48 h
Give measured GI50 for each item. Keep answers brief.

Recorded results for 4 molecules are shown here.
COc1ccc(C(=O)/C=C/c2ccc(C)cc2)cc1OC ... 11.8 µM
O=C(CO[N+](=O)[O-])Nc1ccc(C(=O)/C=C/c2ccc(Cl)cc2)cc1 ... 3.24 µM
CCOc1ccc2nc(SCc3nc4n(n3)S(=O)(=O)c3ccccc3N4C)sc2c1 ... 73 µM
COc1cc(OC)cc(N(CCNC(C)C)c2ccc3ncc(-c4cnn(C)c4)nc3c2)c1 ... 4.75 µM

*Q* // GI50 lookup, key: COc1ccc(S(=O)(=O)N2CC(C)(C)CN(S(=O)(=O)c3ccc(OC)cc3)C2C(=O)NO)cc1
*A* > 20 µM

###

- System: SW-620 colon
- experimental-protocol: NCI tumour cell line growth inhibition, 48 h
Where a SMILES comes first, the peptide text is derived from it. The star is where a group is joined. Boc = CC(C)(C)OC(=O)*
experimental-endpoint: TGI

Reference set (5 entries):
O=C(CC(c1ccccc1)c1c(O)c2ccccc2oc1=O)c1ccccc1 (stereo not drawn) ... > 100 µM
Cc1sc2nc(-c3ccncc3)c(/C=N/N=C(N)N)n2c1C ... > 100 µM
O=S(=O)(O)c1cc(O)c2c(N=Cc3ccccc3O)cc(S(=O)(=O)O)cc2c1 ... > 100 µM
O=C(CP(=O)(O)O)NC(CC(=O)OCc1ccccc1)C(=O)OCc1ccccc1 (stereo not drawn) ... > 100 µM
CCCC(=O)NC1=C(Cl)C(=O)c2ccccc2C1=O ... 6.36 µM

The following compounds each have a reported value; give each one's TGI.
1. O=C1c2ccccc2C(Br)(Br)c2ccccc21
2. COC(=O)NCCc1[nH]nc2c1C(=O)C=C(N1CCOCC1)C2=O
3. COC(=O)C(Cc1c[nH]c2ccccc12)NC(=O)C(Cc1c[nH]c2ccccc12)NC(=O)C(Cc1c[nH]c2ccccc12)NC(=O)C(Cc1c[nH]c2ccccc12)NC(=O)C(Cc1c[nH]c2ccccc12)NC(=O)C(Cc1c[nH]c2ccccc12)NC(=O)OC(C)(C)C (stereo not drawn) (Boc-WWWWWW-OMe; configuration not given here)

*A*
1. > 31.6 µM
2. > 100 µM
3. > 100 µM

###

Could you please report measured TGI for the items listed next?
- Test system: SK-MEL-5 melanoma
- experimental-protocol: NCI tumour cell line growth inhibition, 48 h
Where a SMILES comes first, the peptide text is derived from it. The star is where a group is joined. Boc = CC(C)(C)OC(=O)*; OSu = O=C1CCC(=O)N1O*

See these solved cases before continuing.
Cn1c(=O)c(C(=O)Nc2nc(C34CC5CC(CC(C5)C3)C4)cs2)c(O)c2ccccc21 ... > 100 µM
COc1ccc(-c2cn[nH]c2-c2cc(OC)c3c(c2)OCO3)cc1 ... 8.7 µM

Hi, could you look up TGI for each item in my list?
1. CC(NC(=O)C(NC(=O)OC(C)(C)C)C(C)C)C(=O)NCC(=O)ON1C(=O)CCC1=O (stereo not drawn) (Boc-Val-Ala-Gly-OSu; configuration not given here)
2. COC(=O)[C@@H]1[C@@H](c2cccc(Cl)c2)[C@H](C(=O)OC)C2(C[C@@]1(C)O)NCCS2 (some centres not stated)
3. O=C(/C=C/c1ccc(O)cc1)c1ccc2c(c1)OCO2
4. COc1cc2c(cc1OC)C(C(CO)CO)N(CC(O)CCl)CC2 (configuration not stated)
5. O=C(NCCC1([N+](=O)[O-])CCN(C(=O)c2ccccc2)CC1)c1ccccc1

*A*
> 100 µM
> 100 µM
29.4 µM
> 100 µM
> 100 µM

Cited source for all entries: PubChem BioAssay (NCI)
